Here the recorded solubility is given for each entry.
Test: Solubility of the compound in sodium phosphate buffer at pH 7.4 at 25 +/- 1 degC
Format: physicochemical
State the answer as a number, implicitly in µg/mL.

Recorded solubility, per entry:
LINE_NOTATION: O=C(Nc1cccc(C(=O)N2CCNCC2)c1)NC12CC3CC(CC(C3)C1)C2
QUANTITY: solubility
MEASUREMENT_UNITS: µg/mL
MEAS_VALUE: 1150
//
LINE_NOTATION: CS(=O)(=O)N1CCN(C(=O)c2ccc(NC(=O)NC34CC5CC(CC(C5)C3)C4)cc2)CC1
QUANTITY: solubility
MEASUREMENT_UNITS: µg/mL
MEAS_VALUE: 860
//
LINE_NOTATION: CC(=O)N1CCN(CCCCOc2cccc(NC(=O)CC34CC5CC(CC(C5)C3)C4)c2)CC1
QUANTITY: solubility
MEASUREMENT_UNITS: µg/mL
MEAS_VALUE: 160
//
LINE_NOTATION: CC(C)(C)OC(=O)N1CCN(C(=O)c2ccc(NC(=O)NC34CC5CC(CC(C5)C3)C4)cc2)CC1
QUANTITY: solubility
MEASUREMENT_UNITS: µg/mL
MEAS_VALUE: 500
//
LINE_NOTATION: O=C(Nc1ccc(C(=O)N2CCNCC2)cc1)NC12CC3CC(CC(C3)C1)C2
QUANTITY: solubility
MEASUREMENT_UNITS: µg/mL
MEAS_VALUE: 1960
//
LINE_NOTATION: CS(=O)(=O)N1CCN(C(=O)c2cccc(NC(=O)NC34CC5CC(CC(C5)C3)C4)c2)CC1
QUANTITY: solubility
MEASUREMENT_UNITS: µg/mL
MEAS_VALUE: 130

Reported solubility ( "CC(=O)N1CCN(C(=O)c2ccc(NC(=O)NC34CC5CC(CC(C5)C3)C4)cc2)CC1" ) = 530

Reported solubility ( "CS(=O)(=O)N1CCN(CCCCOc2cccc(NC(=O)CC34CC5CC(CC(C5)C3)C4)c2)CC1" ) = 170

Reported solubility ( "O=C(NC1CCN(C(=O)CCC(=O)N2CCNCC2)CC1)NC12CC3CC(CC(C3)C1)C2" ) = 8000

Reported solubility ( "CC(=O)N1CCN(C(=O)c2cccc(NC(=O)NC34CC5CC(CC(C5)C3)C4)c2)CC1" ) = 890

Reported solubility ( "CC(C)(C)OC(=O)N1CCN(CCCOc2ccc(NC(=O)NC34CC5CC(CC(C5)C3)C4)c3cccnc23)CC1" ) = 150

Reported solubility ( "CC(C)(C)OC(=O)N1CCN(CCCCOc2cccc(NC(=O)CC34CC5CC(CC(C5)C3)C4)c2)CC1" ) = 180

Reported solubility ( "CC(=O)N1CCN(CCCOc2ccc(NC(=O)NC34CC5CC(CC(C5)C3)C4)c3cccnc23)CC1" ) = 130

Reported solubility ( "CC(C)(C)OC(=O)N1CCN(C(=O)c2cccc(NC(=O)NC34CC5CC(CC(C5)C3)C4)c2)CC1" ) = 210

Reported solubility ( "CC(C)(C)OC(=O)N1CCN(C(=O)CCC(=O)N2CCC(NC(=O)NC34CC5CC(CC(C5)C3)C4)CC2)CC1" ) = 470

====

Target: Bifunctional epoxide hydrolase 2 (Homo sapiens, UniProt P34913)
Sequence (P34913 whole entry): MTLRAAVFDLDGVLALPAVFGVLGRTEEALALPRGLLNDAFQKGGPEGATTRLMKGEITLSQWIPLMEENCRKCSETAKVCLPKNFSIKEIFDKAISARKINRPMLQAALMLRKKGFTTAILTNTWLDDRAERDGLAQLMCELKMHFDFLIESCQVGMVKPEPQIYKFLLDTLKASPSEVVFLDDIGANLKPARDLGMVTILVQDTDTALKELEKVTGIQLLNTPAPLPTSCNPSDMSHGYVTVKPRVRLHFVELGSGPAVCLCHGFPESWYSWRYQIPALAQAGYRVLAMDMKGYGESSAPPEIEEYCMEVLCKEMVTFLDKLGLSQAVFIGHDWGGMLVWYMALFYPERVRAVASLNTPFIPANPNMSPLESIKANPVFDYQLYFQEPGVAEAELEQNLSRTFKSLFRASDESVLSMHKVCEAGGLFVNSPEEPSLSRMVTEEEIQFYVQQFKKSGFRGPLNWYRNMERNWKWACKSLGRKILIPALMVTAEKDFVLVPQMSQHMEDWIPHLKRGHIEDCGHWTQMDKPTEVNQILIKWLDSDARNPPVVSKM
Experiment: Inhibition of soluble epoxide hydrolase (unknown origin)
QUANTITY: IC50 (nM)
State the answer as a number, implicitly in nM.

Reported IC50 ( "O=C(NCC[C@H]1CN[C@@H](Cc2ccccc2)CN1)NC12CC3CC(CC(C3)C1)C2" ) = 1370
